Test system: MCF7
Test: Inhibition of cell proliferation in MCF7 mp53 cells in absence of 6.5 Gy [60Co]-induced DNA damage
Type: functional, cell-based
Conditions: Homo sapiens
recorded_metric: IC50 (µM)

compound | assay_value
CN1CCc2cc3c(c4c2[C@H]1[C@@H](O)c1ccccc1-4)OCO3 [OLIVEROLINE] | 45
COc1cc2c(cc1O)CC[n+]1cc3cc(OC)c(OC)cc3cc1-2 [DEHYDRODISCRETINE] | 25
COc1cc2c(cc1OC)-c1cc3cc(OC)c(OC)cc3c[n+]1CC2 [PSEUDOPALMATINE] | 250

* * *

Tested on: MCF7
Assay: Inhibition of cell proliferation in MCF7 mp53 cells in presence of 6.5 Gy [60Co]-induced DNA damage
Format: functional, cell-based
Details: Homo sapiens
pIC50: −log10 of the molar value.

molecule | pIC50
COc1cc2c(cc1O)CC[n+]1cc3cc(OC)c(OC)cc3cc1-2 [DEHYDRODISCRETINE] | 5.15
COc1cc2c(cc1OC)-c1cc3cc(OC)c(OC)cc3c[n+]1CC2 | 4.10
CN1CCc2cc3c(c4c2[C@H]1[C@@H](O)c1ccccc1-4)OCO3 | 4.70
